MEASURE NAME: melting point

Task: Form field: reported melting point of Cc1cc(C)cc(NC(=O)Nc2ccc(-c3c(C(N)=O)[nH]c4ccccc34)cc2)c1
Result: 168 to 170 °C

Task: Form field: reported melting point of NC(=O)c1[nH]c2ccccc2c1-c1ccc(NS(=O)(=O)c2cccc(Cl)c2Cl)cc1
Result: > 260 °C

Task: Form field: reported melting point of Cn1c(C(N)=O)c(-c2ccc(NC(=O)Nc3cc(C(F)(F)F)ccc3F)cc2)c2ccccc21
Result: > 260 °C

Task: Form field: reported melting point of CC(C)(C)c1cc(NC(=O)Nc2ccc(-c3c(C(N)=O)[nH]c4ccccc34)cc2)no1
Result: 176 to 178 °C

Task: Form field: reported melting point of NC(=O)c1[nH]c2cccnc2c1-c1ccc(NC(=O)Nc2cc(C(F)(F)F)ccc2F)cc1
Result: 206 to 208 °C

Task: Form field: reported melting point of NC(=O)c1[nH]c2ccccc2c1-c1ccc(NC(=O)Nc2cc(C(F)(F)F)ccc2F)cc1
Result: 240 to 242 °C

Task: Form field: reported melting point of NC(=O)c1[nH]c2ccccc2c1-c1ccc(NC(=O)Nc2ccc(OC(F)(F)F)cc2)cc1
Result: 162 to 164 °C

Task: Form field: reported melting point of NC(=O)c1[nH]c2ccccc2c1-c1ccc(NC(=O)Nc2cccc(C(F)(F)F)c2)cc1
Result: 156 to 158 °C

====

- TEST TARGET: human KDR enzyme (Homo sapiens, UniProt P35968)
- Construct: The cytoplasmic domain of the human KDR enzyme was cloned in the form of a GST fusion; GST
- Sequence (P35968 786-1356 limits assumed): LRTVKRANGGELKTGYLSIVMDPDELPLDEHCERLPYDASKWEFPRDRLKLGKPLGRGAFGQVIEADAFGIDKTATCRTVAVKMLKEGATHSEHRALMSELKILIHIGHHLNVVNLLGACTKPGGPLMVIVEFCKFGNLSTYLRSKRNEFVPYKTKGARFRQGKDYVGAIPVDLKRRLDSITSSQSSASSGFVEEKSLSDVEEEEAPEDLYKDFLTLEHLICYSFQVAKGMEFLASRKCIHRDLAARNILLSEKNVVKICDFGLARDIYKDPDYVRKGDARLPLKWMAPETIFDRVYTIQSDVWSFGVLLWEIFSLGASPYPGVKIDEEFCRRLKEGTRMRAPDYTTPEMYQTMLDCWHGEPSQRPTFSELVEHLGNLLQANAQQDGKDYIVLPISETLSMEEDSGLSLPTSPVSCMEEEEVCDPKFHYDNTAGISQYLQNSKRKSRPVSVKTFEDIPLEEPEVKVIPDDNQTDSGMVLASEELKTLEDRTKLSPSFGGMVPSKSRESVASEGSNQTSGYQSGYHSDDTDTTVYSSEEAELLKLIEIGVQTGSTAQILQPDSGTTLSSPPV
- EXPERIMENT NOTES: phosphorylation of substrate by the KDR enzyme in vitro, scintillation technique
- CONDITION INFO: read-out: KDR IC 50
pIC50: −log10 of the molar value.
Please note: y applies when pIC50 is 7 or greater, and n applies otherwise.

Reference set (5 entries):
SMILES: NC(=O)c1[nH]c2cccnc2c1-c1ccc(NC(=O)Nc2cc(C(F)(F)F)ccc2F)cc1
CLASS NAME: y

SMILES: Cn1c(C(N)=O)c(-c2ccc(NC(=O)Nc3cc(C(F)(F)F)ccc3F)cc2)c2ccccc21
CLASS NAME: n

SMILES: Cc1cc(C)cc(NC(=O)Nc2ccc(-c3c(C(N)=O)[nH]c4ccccc34)cc2)c1
CLASS NAME: y

SMILES: CC(C)(C)c1cc(NC(=O)Nc2ccc(-c3c(C(N)=O)[nH]c4ccccc34)cc2)no1
CLASS NAME: y

SMILES: NC(=O)c1[nH]c2ccccc2c1-c1ccc(NC(=O)Nc2cc(C(F)(F)F)ccc2CN2CCCC2)cc1
CLASS NAME: n

Next:
Task: Tell me whether pIC50 is at least 7 here: COCc1ccc(C(F)(F)F)cc1NC(=O)Nc1ccc(-c2c(C(N)=O)[nH]c3ccccc23)cc1
Result: n

====

pIC50 overview
- TEST TARGET: human Tie2 (Homo sapiens, UniProt Q02763)
- Construct: corresponding to the intracellular domain amino acids 776-1124 was generated by PCR
- Sequence (Q02763 776-1124): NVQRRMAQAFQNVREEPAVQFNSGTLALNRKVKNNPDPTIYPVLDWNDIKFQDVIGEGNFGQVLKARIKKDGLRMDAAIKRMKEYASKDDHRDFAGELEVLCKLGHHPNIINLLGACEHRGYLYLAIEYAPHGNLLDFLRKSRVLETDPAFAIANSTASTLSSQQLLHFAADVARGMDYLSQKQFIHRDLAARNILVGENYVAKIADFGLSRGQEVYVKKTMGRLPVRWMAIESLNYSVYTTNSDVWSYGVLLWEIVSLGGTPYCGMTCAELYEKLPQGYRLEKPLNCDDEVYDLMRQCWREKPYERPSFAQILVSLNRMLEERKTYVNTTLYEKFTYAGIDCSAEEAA
- EXPERIMENT NOTES: phosphorylation of PLC by Tie2 (GST-Tie2), FlashPlate
- CONDITION INFO: read-out: TIE2 IC 50
- Procedure: The human Tie2 coding sequence corresponding to the intracellular domain amino acids 776-1124 was generated by PCR using the cDNA isolated from human placenta as a model. […] The inhibitory effect of the molecules is determined in an assay for phosphorylation of PLC by Tie2 in the presence of GST-Tie2 purified to approximately 80% homogeneity. […] The kinase activity of Tie2 is measured in a 20 mM MOPS buffer, pH 7.2, containing 10 mM MgCl2, 10 mM MnCl2, 1 mM DTT and 10 mM of glycerophosphate. […]
Note on pIC50: it is the negative log10 of concentration, concentration in mol/L.

Recorded results for 7 compounds are shown here.
SMILES: NC(=O)c1[nH]c2ccccc2c1-c1ccc(NC(=O)Nc2ccccc2F)cc1
TEST TARGET: human Tie2 (Homo sapiens, UniProt Q02763)
NUMERIC VALUE: 6.85

SMILES: NC(=O)c1[nH]c2c(N)cccc2c1-c1ccc(NC(=O)Nc2cc(C(F)(F)F)ccc2F)cc1
TEST TARGET: human Tie2 (Homo sapiens, UniProt Q02763)
NUMERIC VALUE: 8.15

SMILES: NC(=O)c1[nH]c2ccccc2c1-c1ccc(NC(=O)Nc2cccc(C(F)(F)F)c2)cc1
TEST TARGET: human Tie2 (Homo sapiens, UniProt Q02763)
NUMERIC VALUE: 8.22

SMILES: NC(=O)c1[nH]c2ccccc2c1-c1ccc(NC(=O)Nc2cc(C(F)(F)F)ccc2CN2CCCC2)cc1
TEST TARGET: human Tie2 (Homo sapiens, UniProt Q02763)
NUMERIC VALUE: 6.66

SMILES: Cc1cc(C)cc(NC(=O)Nc2ccc(-c3c(C(N)=O)[nH]c4ccccc34)cc2)c1
TEST TARGET: human Tie2 (Homo sapiens, UniProt Q02763)
NUMERIC VALUE: 7.80

SMILES: COCc1ccc(C(F)(F)F)cc1NC(=O)Nc1ccc(-c2c(C(N)=O)[nH]c3ccccc23)cc1
TEST TARGET: human Tie2 (Homo sapiens, UniProt Q02763)
NUMERIC VALUE: 7.23

SMILES: NC(=O)c1[nH]c2ccccc2c1-c1ccc(NC(=O)Nc2ccccc2)cc1
TEST TARGET: human Tie2 (Homo sapiens, UniProt Q02763)
NUMERIC VALUE: 6.53

// switching to the query compound
Task: Form field: reported pIC50 of CN(C)CC(=O)Nc1cccc2c(-c3ccc(NC(=O)Nc4cc(C(F)(F)F)ccc4F)cc3)c(C(N)=O)[nH]c12
Result: 7.55
